Known protein stability index of a selection of variants
B1: ETS2 (parent)
chain: TSGKRYVYRFVCDLQNLLGFTPEE

- Variants of: B1
- Protocol Summary: protein stability index of a GFP-peptide fusion (GPS, HEK-293T) (PSI 1-6); higher = more stable;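 note: lentivirally expressed fusions sorted by FACS into six bins by GFP to DsRed ratio, PSI derived from sequencing read proportions per bin multiplied by bin number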
- Test Settings: c terminus: a fixed tail appended
Readout: protein stability index

- Q15E: 1.85
- E24S: 2.21
- L17F: 2.73
- L18V: 2.91
- F20L: 2.17
- L14T: 2.69
- Q15N: 2.13
- P22A: 1.65
- T21K: 2.25
- L14N: 2.23
- G19T: 1.79
- L14P: 3.53
- L18Y: 1.74
- N16E: 1.74
- E24A: 2.69
- P22M: 2.35
- N16W: 2.05
- P22N: 1.39
- Q15Y: 2.23
- E24K: 1.81
- E24N: 2.33
- E23C: 2.97
- F20Q: 2.35
- T21A: 2.11
- N16M: 1.53
